Source of measurements: the supplement of paper PMC12042874

Protocol Summary: amyloid nucleation score (Sup35N fusion, yeast selection) (log enrichment); library NNK3; higher = more nucleation; inactive = no reads after selection;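 note: zero at mode of non-aggregating sequences after 7 days selection at 30°C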
Measurement Name: amyloid nucleation score

INSERT INTO assay_data (seq_string, measurement_name, obs_value) VALUES
  ('MCSETWIYALSICDNLCRD', 'amyloid nucleation score', 1.29),
  ('YLCLWCVEQLMYCRPRRLEE', 'amyloid nucleation score', 'inactive'),
  ('HYYVDNPD', 'amyloid nucleation score', 'inactive'),
  ('FYCGFAMGFILCCQNYTFVT', 'amyloid nucleation score', 2.63),
  ('LTAYGNVNCV', 'amyloid nucleation score', 'inactive'),
  ('FPYLRRTMGVLIYQCVPIRG', 'amyloid nucleation score', 'inactive'),
  ('CSYRRLIFILCD', 'amyloid nucleation score', 'inactive'),
  ('KVARIVPRFKRQDYTALILD', 'amyloid nucleation score', 'inactive'),
  ('QLLCHYNSSSEFLTQKHRYW', 'amyloid nucleation score', 'inactive'),
  ('VGKWGFQEGST', 'amyloid nucleation score', 'inactive'),
  ('SYGALLNGYGGKSSAPIRWS', 'amyloid nucleation score', 'inactive'),
  ('FYNDWRVFRVGCSLGRDQSN', 'amyloid nucleation score', 'inactive'),
  ('SERPDFMDYEEMLGYAVKWR', 'amyloid nucleation score', 'inactive'),
  ('TCWLVFSSFPINKLVLRNKT', 'amyloid nucleation score', 'inactive'),
  ('CPIWKDRDCFLLSIKYYALQ', 'amyloid nucleation score', -0.24),
  ('VCLMNVSLRRSSFGATTVLA', 'amyloid nucleation score', 'inactive'),
  ('AHDRIFWNGPYNRISYAAFR', 'amyloid nucleation score', 'inactive');

###

amyloid nucleation score: recorded values
Protocol Summary: amyloid nucleation score (Sup35N fusion, yeast selection) (log enrichment); library NNK2; higher = more nucleation; inactive = no reads after selection
Measurement Name: amyloid nucleation score

INSERT INTO assay_data (substance, measurement_name, obs_value) VALUES
  ('VCRDYGVMSMRRDWLCRMSL', 'amyloid nucleation score', 0.391),
  ('GSLVQNVFTMDGGDYHMR', 'amyloid nucleation score', 0.307),
  ('ASSFMSDGRT', 'amyloid nucleation score', 0.35),
  ('SFNNTHVVPMYLFF', 'amyloid nucleation score', 5.4),
  ('VCCRDKMSHCRSAALNMVLL', 'amyloid nucleation score', 3.49),
  ('LVCELYI', 'amyloid nucleation score', -0.171),
  ('ICIFSSCERSMGHRRC', 'amyloid nucleation score', 0.141),
  ('AVELGSGGALSRDKLQGQDG', 'amyloid nucleation score', 0.791),
  ('VYYAGSK', 'amyloid nucleation score', -0.562),
  ('AVPGVC', 'amyloid nucleation score', 0.72),
  ('YRVRCLHWHLIFDCNKKRSK', 'amyloid nucleation score', -0.331),
  ('LVMYGEDDD', 'amyloid nucleation score', -0.025),
  ('HRVAVTKYATRYIPLIMLNW', 'amyloid nucleation score', -0.354),
  ('GSSVDNACQSDLPVQVSMKF', 'amyloid nucleation score', -0.478),
  ('GHLNFS', 'amyloid nucleation score', -0.166),
  ('IIIGFWVCWNSIASWSIVGR', 'amyloid nucleation score', -1.78);
